Every entry's value here was drawn from patent US20170369590A1.

- system: T1, HER2ECDHis (human, UniProt P04626 23-653, biotinylated in the cross-block ELISA (sites not given))
- T1 construct: range 1-653; expressed in HEK-293F; also called soluble HER2; biotinylated HER2ECDHis
- method_notes: ELISA; competitor pert
test_readout: % binding vs no competitor (%)
Enter your answer as a number in %; do not include the unit.

{"binder": "HuMab 129 (antibody, V domains shown) VH: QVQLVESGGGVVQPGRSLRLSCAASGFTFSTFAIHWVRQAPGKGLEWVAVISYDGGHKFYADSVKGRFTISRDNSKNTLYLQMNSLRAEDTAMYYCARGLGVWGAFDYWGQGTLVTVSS VL: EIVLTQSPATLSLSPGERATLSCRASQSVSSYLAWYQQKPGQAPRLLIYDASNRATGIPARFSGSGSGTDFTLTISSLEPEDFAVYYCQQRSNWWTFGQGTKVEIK", "% binding vs no competitor, %": 22}
{"binder": "HuMab 098 (antibody, V domains shown, also called TH1014-098; PC1014-098) VH: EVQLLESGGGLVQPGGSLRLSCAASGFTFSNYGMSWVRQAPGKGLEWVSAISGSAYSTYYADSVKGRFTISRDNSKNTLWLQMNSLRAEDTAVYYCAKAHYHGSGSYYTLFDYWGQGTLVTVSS VL: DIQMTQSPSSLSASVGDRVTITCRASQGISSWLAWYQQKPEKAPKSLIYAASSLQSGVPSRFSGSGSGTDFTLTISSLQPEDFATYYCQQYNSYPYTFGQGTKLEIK", "% binding vs no competitor, %": 104}
{"binder": "HuMab 050 (antibody, V domains shown, also called TH1014-050; PC1014-050) VH: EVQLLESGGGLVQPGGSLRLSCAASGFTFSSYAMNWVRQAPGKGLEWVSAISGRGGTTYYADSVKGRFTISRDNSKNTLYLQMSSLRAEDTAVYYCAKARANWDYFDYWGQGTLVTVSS VL: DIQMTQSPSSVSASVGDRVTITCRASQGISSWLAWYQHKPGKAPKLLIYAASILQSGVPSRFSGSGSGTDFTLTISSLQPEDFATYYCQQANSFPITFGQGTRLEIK", "% binding vs no competitor, %": 95}
{"binder": "HuMab 091 (antibody, V domains shown, also called TH1014-091; PC1014-091) VH: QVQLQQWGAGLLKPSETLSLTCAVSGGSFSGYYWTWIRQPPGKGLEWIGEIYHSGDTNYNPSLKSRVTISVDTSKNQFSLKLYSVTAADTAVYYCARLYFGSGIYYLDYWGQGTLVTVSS VL: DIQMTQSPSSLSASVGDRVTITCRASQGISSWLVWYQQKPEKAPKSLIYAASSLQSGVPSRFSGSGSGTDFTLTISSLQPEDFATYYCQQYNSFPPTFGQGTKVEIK", "% binding vs no competitor, %": 5}

Data request: Quick check: % binding vs no competitor of HuMab 084 (antibody, V domains shown, also called TH1014-084; PC1014-084) VH: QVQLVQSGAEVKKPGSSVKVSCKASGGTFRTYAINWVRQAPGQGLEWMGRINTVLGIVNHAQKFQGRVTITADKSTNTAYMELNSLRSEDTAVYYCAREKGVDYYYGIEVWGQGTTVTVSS VL: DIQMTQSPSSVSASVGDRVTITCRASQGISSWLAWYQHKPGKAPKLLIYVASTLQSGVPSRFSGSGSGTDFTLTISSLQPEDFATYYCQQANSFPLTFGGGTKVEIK ?
Data returned: 101

Data request: Look up % binding vs no competitor for this binder: HuMab 025 (antibody, V domains shown, also called TH1014-025; PC1014-025) VH: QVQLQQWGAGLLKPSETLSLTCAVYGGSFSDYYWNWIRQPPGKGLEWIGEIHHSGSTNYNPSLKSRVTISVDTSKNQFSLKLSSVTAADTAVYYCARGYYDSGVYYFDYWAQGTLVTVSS VL: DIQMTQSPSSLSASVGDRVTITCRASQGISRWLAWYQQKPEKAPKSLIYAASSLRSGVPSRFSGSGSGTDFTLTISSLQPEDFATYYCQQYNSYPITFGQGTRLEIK
Data returned: 8

Data request: Looking for the measured % binding vs no competitor of HuMab 169 (antibody, V domains shown, also called TH1014-169; PC1014-169) VH: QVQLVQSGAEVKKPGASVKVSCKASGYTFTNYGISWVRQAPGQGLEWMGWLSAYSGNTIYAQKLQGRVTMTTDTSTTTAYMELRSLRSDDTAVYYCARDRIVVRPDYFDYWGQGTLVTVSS VL: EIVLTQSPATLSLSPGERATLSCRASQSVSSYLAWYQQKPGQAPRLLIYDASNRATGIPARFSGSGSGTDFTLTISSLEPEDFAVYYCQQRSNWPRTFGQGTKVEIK , can you help?
Data returned: 101
